Measured IC50 values are reported for all entries that follow.
target: human Bruton's Tyrosine Kinase (Btk) (Homo sapiens (Human), UniProt Q06187); experiment: Recombinant Human Bruton's Tyrosine Kinase (Btk) Inhibition Assay (HTRF KinEASE-TK); assay type: biochemical; settings: 20 ng/ml rhBtk, 77 μM ATP (KM), 1 μM TK-Biotin substrate, 90 min; read-out: hBTK IC50
Sequence (Q06187 whole entry): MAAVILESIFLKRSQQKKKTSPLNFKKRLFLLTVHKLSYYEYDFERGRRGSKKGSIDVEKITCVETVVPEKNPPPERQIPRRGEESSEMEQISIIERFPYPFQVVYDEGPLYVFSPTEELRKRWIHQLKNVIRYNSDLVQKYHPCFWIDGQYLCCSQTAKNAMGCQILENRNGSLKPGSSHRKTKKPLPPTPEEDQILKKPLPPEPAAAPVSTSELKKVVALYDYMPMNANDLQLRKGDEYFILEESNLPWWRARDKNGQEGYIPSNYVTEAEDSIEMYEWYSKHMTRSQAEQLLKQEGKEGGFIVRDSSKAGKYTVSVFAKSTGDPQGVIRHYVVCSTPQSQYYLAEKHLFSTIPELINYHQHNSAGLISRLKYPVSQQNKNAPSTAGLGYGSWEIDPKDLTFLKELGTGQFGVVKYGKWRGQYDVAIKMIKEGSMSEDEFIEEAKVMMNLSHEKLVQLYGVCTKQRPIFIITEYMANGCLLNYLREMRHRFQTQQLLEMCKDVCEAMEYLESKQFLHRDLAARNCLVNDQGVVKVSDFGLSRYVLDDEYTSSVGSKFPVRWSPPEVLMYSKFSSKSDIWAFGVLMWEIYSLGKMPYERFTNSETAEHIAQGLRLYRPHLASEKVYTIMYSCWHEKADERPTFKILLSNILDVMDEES

-- ask State the recorded IC50 for this entry: Cc1c(-c2ncnc3[nH]c(-c4ccc(C(=O)N5CCN(C)CC5)cc4)cc23)cccc1N1CCc2cc(C3CC3)ccc2C1=O [Example K-21]
-- reply > 1000 nM

-- ask State the recorded IC50 for this entry: Cc1c(-c2ncnc3[nH]c(-c4cccc(CN5CCOCC5)c4)cc23)cccc1N1CCc2cc(C3CC3)ccc2C1=O
-- reply 825 nM

-- ask State the recorded IC50 for this entry: O=C1c2c(F)cc(C3CC3)cc2OCCN1c1cccc(-c2ccnc3[nH]c(-c4ccc(OCCN5CCC5)cn4)cc23)c1CO
-- reply 3.1 nM

-- ask State the recorded IC50 for this entry: O=C1c2c(F)cc(C3CC3)cc2OCCN1c1cc(F)cc(-c2ccnc3[nH]c(-c4ccc(CN5CCN(C6COC6)CC5)cn4)cc23)c1CO
-- reply 1.3 nM

-- ask State the recorded IC50 for this entry: COC1CN(C(=O)c2ccc(-c3cc4c(-c5cccc(N6CCOc7cc(C8CC8)ccc7C6=O)c5C)ncnc4[nH]3)cc2)C1
-- reply 162 nM

-- ask State the recorded IC50 for this entry: NC(=O)CN1CC=C(c2cc3c(-c4cccc(N5CCOc6cc(C7CC7)cc(F)c6C5=O)c4CO)ccnc3[nH]2)CC1
-- reply 5.3 nM

* * *

Measured log10 of IC50 values are reported for all entries that follow.
target: human Bruton's Tyrosine Kinase (Btk) (Homo sapiens (Human)); experiment: Recombinant Human Bruton's Tyrosine Kinase (Btk) Inhibition Assay (HTRF KinEASE-TK); assay type: biochemical; conditions: 20 ng/ml rhBtk, 77 μM ATP (KM), 1 μM TK-Biotin substrate, 90 min; read-out: hBTK IC50
A difference of one corresponds to tenfold IC50; all values are log10 with IC50 in nM.

>  <input-smiles>
CN1CCN(Cc2ccc(-c3cc4c(-c5cccc(N6CCOc7cc(C8CC8)ccc7C6=O)c5CO)ccnc4[nH]3)c(F)c2)CC1

>  <log10 of IC50>
0.95

$$$$
>  <input-smiles>
O=C1c2c(F)cc(C3CC3)cc2OCCN1c1cccc(-c2ccnc3[nH]c(-c4ccc(OCCN5CCOCC5)cn4)cc23)c1CO

>  <log10 of IC50>
0.46

$$$$
>  <input-smiles>
O=C1c2ccc(C3CC3)cc2OCCN1c1cccc(-c2ccnc3[nH]c(-c4ccc(CN5CCS(=O)(=O)CC5)cn4)cc23)c1CO

>  <log10 of IC50>
0.95

$$$$
>  <input-smiles>
Cc1c(-c2ncnc3[nH]c(-c4ccc(C(=O)N5CCCCC5)cc4)cc23)cccc1N1CCOc2cc(C3CC3)ccc2C1=O

>  <log10 of IC50>
2.23

$$$$
>  <input-smiles>
O=C(N1CC=C(c2cc3c(-c4cccc(N5CCOc6cc(C7CC7)cc(F)c6C5=O)c4CO)ccnc3[nH]2)CC1)N1CCC1

>  <log10 of IC50>
0.00

$$$$
>  <input-smiles>
CN1CCN(Cc2ccc(-c3cc4c(-c5cccc(N6CCOc7cc(C8CC8)cnc7C6=O)c5CO)ccnc4[nH]3)nc2)CC1

>  <log10 of IC50>
1.54

$$$$

-- ask State the recorded log10 of IC50 for this entry: CC(C)N1CC(Oc2ccc(-c3cc4c(-c5cccc(N6CCOc7cc(C8CC8)ccc7C6=O)c5CO)ccnc4[nH]3)cn2)C1
-- reply 1.04

-- ask State the recorded log10 of IC50 for this entry: Cc1c(-c2ncnc3[nH]c(-c4cccc(CN5CCOCC5)c4)cc23)cccc1N1CCOc2cc(C3CC3)ccc2C1=O
-- reply 2.62
